test system: Follistatin-related protein 3 (Homo sapiens) (UniProt O95633)
Sequence (O95633 whole entry, looked up): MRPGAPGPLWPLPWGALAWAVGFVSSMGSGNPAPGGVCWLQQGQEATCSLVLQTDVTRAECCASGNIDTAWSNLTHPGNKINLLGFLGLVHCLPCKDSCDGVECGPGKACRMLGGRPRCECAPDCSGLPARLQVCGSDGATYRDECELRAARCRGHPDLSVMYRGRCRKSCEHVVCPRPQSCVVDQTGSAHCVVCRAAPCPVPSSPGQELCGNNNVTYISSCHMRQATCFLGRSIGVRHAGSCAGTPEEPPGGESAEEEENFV
assay method text: compounds binding follistatin-related protein 3 – biochemical, small-molecule microarray, 635 nm fluorescence, primary screen (AID 1105);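 note: score merges emission near 667 nm and signal to noise per printed spot across three slides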
condition info: FSTL3 binding, higher = more signal

compound	composite z-score
CN(C)c1ccc(C(O)C2C=CC3C(=O)N(Cc4ccccc4)C(=O)C3N2n2cnnc2)cc1 (stereo not given)	-0.0523
C=C(CCCC)/C(=C/C[C@H](OC(C)=O)c1cccc(OCCO)c1)c1cnc2ccccc2c1	0.234
CCCCCCc1nc(Cc2cc(OC)c(OC)c(OC)c2)cc2c1[Si](C(C)C)(C(C)C)O[C@H]2c1ccccc1	0.594
C=C(COC)/C(=C/C[C@@H](OC(C)=O)c1ccccc1OCCO)c1cnc2ccccc2c1	1.44
O=C1O[C@@H](c2ccccc2)[C@@H](c2ccccc2)N2[C@@H](c3ccc(OCCO)cc3)[C@]3(C(=O)Nc4ccc(C#CC5(O)CCCCCC5)cc43)[C@@H](C(=O)O)[C@H]12	0.401
COC(=O)[C@@]1(Cc2ccc(F)cc2)[C@H]2c3cc(C(=O)N(C)C)n(CCc4ccc(O)c(O)c4)c3C[C@H]2CN1C(=O)c1ccccc1	-0.439
O=C(NC1CC1)[C@@H]1c2ccccc2C(=O)N(Cc2ccc(OC(F)(F)F)cc2)[C@H]1c1ccc(CO)cc1	0.301
CC(=O)NCCCC[C@@H]1NC(=O)[C@H]2C[C@@H](C(=O)NCCCCCCNC(=O)CS)[C@@H](c3cccc(OCCO)c3)N2C1=O	0.225
CN(C)CCCC[C@@H]1NC(=O)[C@@H]2C[C@H](C(=O)NCCCCCCNC(=O)CS)[C@H](c3ccc(O)cc3)N2C1=O	0.997
CN1C(=O)[C@@H]2[C@@H](CC(COc3ccccc3)=C3[C@@H](CCc4ccccc4)OB(O)C[C@@H]32)C1=O	0.128
CCCC=C(CCC)[C@@H](NC(=O)OCC(C)C)c1ccc(C(=O)OC)cc1	0.414
COC(=O)[C@@]1(Cc2ccc(F)cc2)[C@H]2c3cc(C(=O)N4CCCC4)n(CCc4ccccn4)c3C[C@H]2CN1C(=O)c1ccccc1	-0.575
O=C1N(CCS(=O)(=O)c2ccccc2)c2ccccc2C[C@]12N=C(c1ccc(OCCCO)cc1)O[C@@H]2c1ccccc1	1.34
COCCOC(=O)N1C(=O)[C@@]2(c3cc(C#CCC(C(=O)OC)C(=O)OC)ccc31)[C@H](C(=O)Nc1nc3ccccc3s1)[C@H]1C(=O)O[C@H](c3ccccc3)[C@H](c3ccccc3)N1[C@@H]2c1ccc(O)cc1	1.41
C=C(C)[C@@H]1CC=C(C(O)C2C=CC3C(=O)N(c4ccccc4)C(=O)C3N2Nc2ccc([N+](=O)[O-])cc2)CC1 (stereo not given in full)	1.44
